Tested on: SK-OV-3 ovarian
assay.notes: NCI tumour cell line growth inhibition, 48 h
Provide the reported TGI of each item.

Guide cases for TGI, answers given:
>  <compound>
COc1cnccc1Nc1nc(-c2nn(Cc3c(F)cc(OCCO)cc3F)c3ccccc23)ncc1OC

>  <val>
48 µM

$$$$
>  <compound>
COC1/C(=C\C(C)=O)c2ccccc2N1C(C)=O (centres undefined)

>  <val>
> 100 µM

$$$$

Report TGI for every entry below.
1. CN(C)CCC[N+]1=Nc2cccc3cccc(c23)N1
2. Fc1ccc(C(OCCN2CCC3CCC(C2)N3C/C=C/c2cccs2)c2ccc(F)cc2)cc1 (centres undefined)
3. COC(=O)[C@@]12C3=NO[C@]1(C(=O)OC)C(O[Si](C)(C)C(C)(C)C)[C@@H](OC(C)=O)[C@@H](OC(C)=O)[C@@H]2[C@@H](OCc1ccccc1)CC3 (some centres undefined)

A.
1: > 100 µM; 2: 26.3 µM; 3: > 100 µM

----------
Tested on: RXF 393 renal
assay.notes: NCI tumour cell line growth inhibition, 48 h
Record form. Attribute: GI50. Fill in for each entry.

Below, 3 molecules whose answers are already recorded.
>  <structure.string>
CCc1c(C)c2cc(-n3c(-c4ccc(OC)cc4)csc3=N)c(O)c(C)c2oc1=O

>  <GI50>
1.74 µM

$$$$
>  <structure.string>
COC(=O)c1cc2cc(/C=C3/SC(=S)N(N(C(C)=O)C(C)=O)C3=O)oc2n1Cc1ccccc1

>  <GI50>
22 µM

$$$$
>  <structure.string>
CC1=C[C@@H]2c3c(c(O)c(O)c4oc5cc(O)cc(O)c5c(=O)c34)[C@@H](c3cc(O)c(O)c4oc5cc(O)cc(O)c5c(=O)c34)[C@@H]2C(C)(C)C1

>  <GI50>
5.69 µM

$$$$

Query molecule follows.
response.value for CSc1ccc(C(=O)/C=C/c2ccc(Cl)cc2Cl)cc1 (field: GI50) = 16.4 µM

----------
Test system: UACC-257 melanoma
assay.notes: NCI tumour cell line growth inhibition, 48 h
Values of TGI greater than or equal to 40 µM map to rule met; values below map to rule not met.

>  <molecule>
COc1ccc(/C=C/c2ccnc3ccccc23)cc1OC

>  <assigned.class>
rule not met

$$$$

Q. Entry N#Cc1ccc(C2SCc3nc4ccccc4n32)cc1 (stereo unspecified) : is its TGI no less than 40 µM?
A. rule met

Q. Is reported TGI greater than or equal to 40 µM here: COC(=O)CC1=C(C)/C(=C/c2[nH]c(-c3ccc[nH]3)cc2OC)N=C1C
A. rule not met

Q. Decide: TGI of CSc1nc(NCc2ccccc2)c2cnn(COCCO)c2n1 >= 40 µM?
A. rule met

Q. Answer whether TGI of COc1cc(O)c(C(=O)/C=C/c2ccc(OC)c(OCc3ccccc3)c2)c(OC)c1 is greater than or equal to 40 µM.
A. rule met

----------
Test system: MOLT-4 leukemia
assay.notes: NCI tumour cell line growth inhibition, 48 h; in the data active = GI50 below about 0.43 µM; inactive = the rest
Your reply should match one of these outcome classes. active, inactive

Check out these entries, answers already filled in.
>  <compound>
Clc1ccc(-c2nc(NCc3ccco3)c3ccccc3n2)c(Cl)c1

>  <assigned.class>
inactive

$$$$
>  <compound>
COc1ccc2c(c1)-c1c(c3cc(OC)ccc3n(CCN(C)C)c1=O)C2=O

>  <assigned.class>
active

$$$$
>  <compound>
CC(=O)c1c(C)c2cnc(Nc3ccc(N4CCNCC4)cn3)nc2n(C2CCCC2)c1=O

>  <assigned.class>
inactive

$$$$
>  <compound>
CN1CCN(c2ccc(NC3=CC(=O)c4ncncc4C3=O)cc2)CC1

>  <assigned.class>
active

$$$$
>  <compound>
CCOC(=O)/C=C1/SC(=Nc2ccc(C#N)cc2)N(Cc2ccco2)C1=O

>  <assigned.class>
inactive

$$$$

Q. Given C=C(C)C(=O)Nc1ccc(-c2c(-c3ccc(Oc4nccc(C)n4)c(F)c3)c3c(N)ncnc3n2C)cc1 , state the outcome it received in this test.
A. inactive

Q. So what was the verdict on COc1cc(-c2ccc[nH]2)[nH]c1/C=C1\N=C(C)C(CC(=O)OCC(C)(C)C)=C1C in this test?
A. active

Q. Call for entry COC(=O)c1cc(-c2ccc(S(C)(=O)=O)cc2)[nH]c1N/N=C/c1c(Cl)cccc1Cl :
A. inactive

Q. Recorded test call requested for CCOCCOCCOCCOCCOCCOCCOCCOCCOCCO (tested in a mixture with another compound)
A. inactive
